Data credit: patent US20230192834A1

Recorded Kd, one value per entry.
Molecular target: TGFβ1 (R&D Systems)
Sequence (P01137 279-390): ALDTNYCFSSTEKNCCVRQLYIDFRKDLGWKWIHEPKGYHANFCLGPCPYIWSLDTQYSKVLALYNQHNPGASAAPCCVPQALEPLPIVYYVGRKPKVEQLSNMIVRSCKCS
Test: SPR (Biacore T200), TGFβ amine-coupled to chip, 1:1 fit
Return type: number; implicit unit nM.

Kindly note the recorded Kd for Caninized anti-TGFβ1,2,3 antibody VH4.11 - VL3 (antibody, V domains shown) VH: QVQLVQSGAEVKKPGSSVKVSCKASGYTFSSNVISWVRQAPGKGLQWVGGVIPIVDIANYAQRFKGRVTLTADTSTNTVYMELSNLRTEDTAVYYCARTLGLVLDAMDYWGQGTLVTVSS VL: EIVMTQSPASLSLSQEEKVTITCRASQSLGSSYLAWYQQKPGQAPKLLIYGASSRAPGVPSRFSGSGSGTDFSFTISSLEPEDVAVYYCQQYADSPITFGQGTKLEIKR , which is 7.14

Kindly note the recorded Kd for Felinized anti-TGFβ1,2,3 antibody VH3.2 - VL7 (antibody, V domains shown) VH: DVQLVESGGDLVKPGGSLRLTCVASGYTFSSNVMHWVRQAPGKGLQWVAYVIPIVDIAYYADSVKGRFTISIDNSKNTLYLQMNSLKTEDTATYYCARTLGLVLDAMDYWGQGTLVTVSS VL: DIVLTQPPSLSVNLGQTARITCRASQSLGSSYLAWYQQKPGQAPKLVTYGASSRAPGIPDRFSGTNSGITATLTISGARAEDEADYYCQQYADSPITFGQGTKLEIKR , which is 0.857

Kindly note the recorded Kd for Felinized anti-TGFβ1,2,3 antibody VH2.1 - VL8 (antibody, V domains shown) VH: QVLLVQSGADVRKPGASVKIFCKASGYTFTSNVISWVRQTPAQGFEWMGGVIPIVDIANYAQRFKGRLVLTADTSTNTAYMELRSLKSADTAVYYCASTLGLVLDAMDYWGQGSLVTVSS VL: DIVMTQSPGSLAGSPGQQVTMNCRASQSLGSSYLAWYQQKPGQHPELLIYGASSRAPGVPDRFSGSGSGTDFTLTISNLQAEDVANYYCQQYADSPITFGQGTKLEIKR , which is 3.31
